tested on: HEK293T cells; test: Dynamic range / dose-responsiveness to activating ligand, firefly luciferase constructs; type: cell-based; settings: optimal copy number, 0-100 μM activating ligand, HEK293T cells

| molecule | Dynamic Range |
| --- | --- |
| Tet-SLIM: tetracycline-responsive self-targeting ligand inactivating microRNA (SLIM) switch, SEQ ID NO: 17 (nucleic acid) CTAGCACGGGTCCCTAAAACATACCGTGAGCGCGAAAGCGCCCCCATTTTGAGTTAGTGAAGCCACAGATGTAACTCAAAATGGGGGCGCTTTCCCGCCTACGGAGAGGTGAAGAATACGACCACCTAGAAGCTTATTGGTACATGATAACACCCCAAAATCGAAGCACTTCAAAAACACCCCAAAATCGAAGCACTTCAAAAACACCCCAAAATCGAAGCACTTCAAAAACACCCCAAAATCGAAGCACTTCAGTCTCAGGCATCGTACGATGTCGACCTGCAGG | 2.3-fold |
| L2Bulge18tc: Tetracycline ON switch riboswitch, SEQ ID NO: 12 (nucleic acid) CTCGAGGCGATCGCAAACAAACAAAGCTGTCACCGGATGTGCTTTCCGGTCTGATGAGTCCGTTGTCCAAAACATACCAGATTTCGATCTGGAGAGGTGAAGAATTCGACCACCTGGACGAGGACGGAGGACGAAACAGCAAAAAGAAAAATAAAAATTAATTAATCTTGGGCCC | 4.3-fold |
| K19: Tetracycline ON switch riboswitch, SEQ ID NO: 15 (nucleic acid) CAAACAAACAAAGGCGCGTCCTGGATTCGTGGTAAAACATACCAGATTTCGATCTGGAGAGGTGAAGAATACGACCACCTGTAGTATCCAGCTGATGAGTCCCAAATAGGACGAAACGCGCTAAACAAACAAAC | 1.5-fold |
